Molecular target: hMcl-1 (172–323) (human, UniProt Q07820 172-323)
Sequence (Q07820 172-323): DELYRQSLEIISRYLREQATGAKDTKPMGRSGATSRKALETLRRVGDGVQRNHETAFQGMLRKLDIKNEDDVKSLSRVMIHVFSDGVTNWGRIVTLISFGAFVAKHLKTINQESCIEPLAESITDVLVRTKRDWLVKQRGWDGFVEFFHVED
Assay: DELFIA displacement assay
Kindly supply the reported IC50 values for the records listed here.

*Q* Consider the binder Ac-CATQLRRFGDKLNFRQKLLNLISKLFC-NH2 (also: cyclic (cyc_), mode of cyclisation not given here) [cyc_hNOXA (Ac-CATQLRRFGDKLNFRQKLLNLISKLFC-NH2)] and give its measured IC50.
*A* 344 nM

*Q* If you can, please state the reported IC50 value of Ac-CATQLRRFGDKLN-NH2 [hNOXAs (Ac-CATQLRRFGDKLN-NH2)] .
*A* > 1000 nM

*Q* I have this binder here, Ac-AATQLRRFGDKLN-NH2 [C1A_hNOXAs (Ac-AATQLRRFGDKLN-NH2)] , and I need its recorded IC50.
*A* > 1000 nM

*Q* What measured IC50 goes with Ac-CATQLRRFGDKLNFRQKLLN-NH2 [hNOXA (Ac-CATQLRRFGDKLNFRQKLLN-NH2)] ?
*A* 228 nM
